# ASSAY_NOTES: AP1 Signaling Pathway (AID 357);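 also: ME-180 reporter cells stimulated with EGF at its EC50 level; % is scaled to controls: 0 for no effect and ±100 for the full control effect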
# TEST_PARAMETERS: ME-180 (cervical carcinoma) AP-1-bla reporter, EGF-induced, beta-lactamase ratio, 5 h; at 7.69 µM (top of the series) unless noted
Inconclusive results are not listed.
OBSERVABLE: activity change, negative = inhibition (%)
Note: unit % is implicit; provide only the numeric part.

INSERT INTO measurements (chem_smiles, observable, units, recorded_value) VALUES
  ('COc1ccccc1CN1CCCC2(CCN(S(C)(=O)=O)CC2)C1', 'activity change, negative = inhibition', '%', -4.49),
  ('Cc1noc(C)c1C(=O)N1CCC[C@@]2(CCN(c3ncccn3)C2)C1', 'activity change, negative = inhibition', '%', 2.18),
  ('CNc1ncnc2ccc(-c3ccccc3CN(C)C)cc12', 'activity change, negative = inhibition', '%', -22.5),
  ('COc1ccccc1CN1CC[C@@]2(CCCN(C(=O)c3cccc(F)c3)C2)C1', 'activity change, negative = inhibition', '%', -14.6),
  ('CS(=O)(=O)Nc1cccc(-c2ccc3ncnc(N4CCNCC4)c3c2)c1', 'activity change, negative = inhibition', '%', -1.37);

Moving on to another compound below.
According to the records, this compound `Cc1nc2cnc(Nc3ccccc3)nc2n(C2CC2)c1=O` displays activity change, negative = inhibition of -25.6
